# Experiment summary: Metabolic stability of the compound in 50% human serum incubated for 120 mins by RP-HPLC analysis
# Format: ADME, cell-free
# Setup conditions: read-out: Stabilty
Readout: remaining at 2 h (%)
Give bare numbers, in %.

Name the recorded remaining at 2 h of the item "CC[C@H](C)[C@@H]1NC(=O)[C@@H](NC(=O)[C@H](CC(C)C)NC(=O)[C@H](CC(C)C)NC(=O)[C@H](CCC(N)=O)NC(=O)[C@H](CCCCN)NC(C)=O)CCCc2cn(nn2)CCC[C@@H](C(=O)N[C@@H](Cc2ccc(O)cc2)C(=O)N[C@@H](Cc2c[nH]c3ccccc23)C(=O)N[C@H](C(=O)N[C@@H](CO)C(N)=O)[C@@H](C)O)NC(=O)[C@@H]2CCCN2C(=O)[C@H](CCCNC(=N)N)NC(=O)[C@H](CC(=O)O)NC(=O)CNC(=O)[C@H](CO)NC(=O)[C@H](CCCNC(=N)N)NC1=O" in your answer. 100

###

# Experiment summary: Metabolic stability of the compound in 50% human serum assessed as half life by RP-HPLC analysis
# Format: ADME, cell-free
Kindly state half-life for each of the entries shown.
Numbers only, in min.

| Substance | Value reported |
| --- | --- |
| H-KQLLWIRSGDRPWYYTS-OH | 25 |

Please turn your attention to the following entry.
Name the recorded half-life of the item "Ac-KQLLWIRSGDRPWYYTS-NH2" in your answer. 25
